pIC50: −log10 of the molar value.
Recorded pIC50 for molecules tested on ASK1 (Homo sapiens (Human)), drawn from a number of studies.

Observe how each entry below is paired with its result.
# molecule, studySystem, pIC50
measured = [
    ("CCNC(=O)N1CCc2ccc(C(=O)Nc3cccc(-c4nncn4C(C)C)n3)cc2C1", "ASK1 (Homo sapiens (Human))", "8.00 to 9.00"),
    ("COc1cc2c(cc1C(=O)Nc1cccc(-c3nncn3C(C)C)n1)CN(c1cncnc1)CC2", "ASK1 (Homo sapiens (Human))", "> 8.90"),
]

# next molecule below
Sample Cc1cnc(C(=O)Nc2cccc(-c3nncn3C(C)C)n2)cc1C1CC1NC(=O)OC(C)(C)C (stereo not drawn) — what was its pIC50? < 8.00

* * *

Recorded IC50 for compounds tested on ASK1 (Homo sapiens (Human), UniProt Q99683), drawn from a number of studies.
Sequence (Q99683 whole entry): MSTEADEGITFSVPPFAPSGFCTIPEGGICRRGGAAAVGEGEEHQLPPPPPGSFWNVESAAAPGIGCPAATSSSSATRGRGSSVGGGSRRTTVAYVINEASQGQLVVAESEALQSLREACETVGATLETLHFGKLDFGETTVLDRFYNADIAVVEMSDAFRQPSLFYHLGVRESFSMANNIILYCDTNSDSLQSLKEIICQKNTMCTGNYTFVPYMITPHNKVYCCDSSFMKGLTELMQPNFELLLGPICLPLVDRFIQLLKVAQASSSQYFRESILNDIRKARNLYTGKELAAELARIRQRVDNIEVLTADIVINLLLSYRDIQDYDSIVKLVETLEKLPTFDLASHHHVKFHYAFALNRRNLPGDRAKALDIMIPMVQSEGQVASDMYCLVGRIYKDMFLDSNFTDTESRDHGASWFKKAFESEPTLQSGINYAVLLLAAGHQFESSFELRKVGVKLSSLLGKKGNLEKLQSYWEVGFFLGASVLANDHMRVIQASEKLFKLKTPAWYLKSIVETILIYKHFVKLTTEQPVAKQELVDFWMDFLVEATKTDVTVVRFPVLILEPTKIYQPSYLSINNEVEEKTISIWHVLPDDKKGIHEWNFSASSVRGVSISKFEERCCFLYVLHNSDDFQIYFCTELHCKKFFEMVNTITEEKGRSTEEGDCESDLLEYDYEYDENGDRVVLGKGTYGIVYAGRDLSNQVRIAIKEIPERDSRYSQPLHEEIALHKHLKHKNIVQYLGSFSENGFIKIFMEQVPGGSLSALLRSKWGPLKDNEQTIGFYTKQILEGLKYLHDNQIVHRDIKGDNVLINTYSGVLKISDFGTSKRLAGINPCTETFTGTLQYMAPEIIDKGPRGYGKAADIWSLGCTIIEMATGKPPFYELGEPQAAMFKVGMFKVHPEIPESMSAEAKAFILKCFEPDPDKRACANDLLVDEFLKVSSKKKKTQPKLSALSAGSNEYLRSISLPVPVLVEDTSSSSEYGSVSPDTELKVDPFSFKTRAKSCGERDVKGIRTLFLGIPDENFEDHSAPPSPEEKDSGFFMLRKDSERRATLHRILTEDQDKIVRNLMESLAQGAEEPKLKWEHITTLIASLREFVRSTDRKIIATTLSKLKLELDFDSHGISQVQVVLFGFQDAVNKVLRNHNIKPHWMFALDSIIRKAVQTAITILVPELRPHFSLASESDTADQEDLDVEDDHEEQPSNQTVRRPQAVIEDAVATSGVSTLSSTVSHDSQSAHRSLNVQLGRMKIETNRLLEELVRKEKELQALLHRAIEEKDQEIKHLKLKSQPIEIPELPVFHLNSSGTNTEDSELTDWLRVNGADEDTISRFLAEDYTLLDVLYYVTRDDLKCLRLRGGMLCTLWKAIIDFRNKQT

Observe how each entry below is paired with its result.
# compound, studySystem, IC50
rows = [
    ("Cc1cc(F)c(C(=O)Nc2cccc(-c3nnnn3C(C)C)n2)cc1-c1cn(C(C)C)cn1", "ASK1 (Homo sapiens (Human), UniProt Q99683)", "0.01 to 0.1 µM"),
    ("COc1cc(C)c(C2CC2NS(=O)(=O)CCC(F)(F)F)cc1C(=O)Nc1cccc(-c2nncn2C(C)C)n1 (centres unmarked)", "ASK1 (Homo sapiens (Human), UniProt Q99683)", "0.001 to 0.01 µM"),
]

Sample CC(C)Oc1ccc2c(c1)C(=O)N(c1cccc(-c3nnnn3[C@H](C)CO)n1)C2 — what was its IC50? 0.001 to 0.01 µM

Sample CC(C)n1nnnc1-c1cccc(NC(=O)c2cc3c(cc2F)CCN(S(=O)(=O)CC(F)F)C3)n1 — what was its IC50? 0.01 to 0.1 µM

Sample O=C(Nc1cccc2c1OCCn1cnnc1-2)c1cc(-n2cnc(C3CC3)c2)c(N2CCOCC2)cn1 — what was its IC50? 0.0156 µM

Sample CCOC(=O)C1CC1c1cc(C(=O)Nc2cccc(-c3nncn3C(C)C)n2)c(F)cc1C (centres unmarked) — what was its IC50? 0.001 to 0.01 µM

Sample CC(C)n1nnnc1-c1cccc(NC(=O)c2cc3sc(N4CCC4)nc3cc2F)n1 — what was its IC50? > 1 µM

* * *

pIC50: −log10 of the molar value.
Recorded pIC50 for compounds tested on UniProt Q99683, drawn from a number of studies.

Observe how each entry below is paired with its result.
# compound, testValue
data = [
    ("CC(C)n1cnnc1-c1cccc(NC(=O)c2cc3c(cn2)CCN(S(=O)(=O)C2CC2)C3)n1", "8.00 to 8.90"),
    ("CC1c2cc(C(=O)Nc3cccc(-c4nnnn4C(C)C)n3)c(F)cc2CCN1C(=O)OCc1ccccc1 (centres unmarked)", "6.00 to 7.00"),
    ("CC(C)n1cnnc1-c1cccc(NC(=O)c2cc3c(cc2F)CCN(C(=O)OC(C)(C)C)C3)n1", "8.00 to 8.90"),
]

Sample COc1cc2c(cc1C(=O)Nc1cccc(-c3nnnn3[C@H](C)CO)n1)CN(c1ncc(F)cn1)CC2 — what was its pIC50? 8.00 to 8.90

Sample CC(C)n1cnnc1-c1cccc(NC(=O)c2cc3sc(N4CCC(C(C)(C)C)CC4)nc3cn2)n1 — what was its pIC50? < 6.00

Sample CC(C)n1cnnc1-c1cccc(NC(=O)c2cc3cc(N4CCCCC4)ccc3cn2)n1 — what was its pIC50? 8.00 to 9.00

Sample O=C(Nc1cccc2c1OCCn1cnnc1-2)c1cc(-n2cnc(C3CC3)c2)ccn1 — what was its pIC50? 7.45

Sample Cc1cc(F)c(C(=O)Nc2cccc3c2OC[C@H](CF)n2cnnc2-3)cc1-n1cnc(C2CC2)c1 — what was its pIC50? 8.51
